Recorded values, source patent US7531555B2.

molecular target: Rat α3β2β3 (Rattus norvegicus, UniProt P04757+P12390+P12391); construct: expressed in transfected cells; host or cells: Xenopus laevis oocytes injected with subunit cRNAs; clones from Dr. Jim Boulter (UCLA); experiment: Voltage clamp of Xenopus oocytes expressing α3β2β3 nAChR; type: cell-based; conditions: decrease in peak current amplitude, 100 μM ACh co-applied with TMPH; read-out: IC50 (peak)
Sequence (P12390 25-500, one chain of several): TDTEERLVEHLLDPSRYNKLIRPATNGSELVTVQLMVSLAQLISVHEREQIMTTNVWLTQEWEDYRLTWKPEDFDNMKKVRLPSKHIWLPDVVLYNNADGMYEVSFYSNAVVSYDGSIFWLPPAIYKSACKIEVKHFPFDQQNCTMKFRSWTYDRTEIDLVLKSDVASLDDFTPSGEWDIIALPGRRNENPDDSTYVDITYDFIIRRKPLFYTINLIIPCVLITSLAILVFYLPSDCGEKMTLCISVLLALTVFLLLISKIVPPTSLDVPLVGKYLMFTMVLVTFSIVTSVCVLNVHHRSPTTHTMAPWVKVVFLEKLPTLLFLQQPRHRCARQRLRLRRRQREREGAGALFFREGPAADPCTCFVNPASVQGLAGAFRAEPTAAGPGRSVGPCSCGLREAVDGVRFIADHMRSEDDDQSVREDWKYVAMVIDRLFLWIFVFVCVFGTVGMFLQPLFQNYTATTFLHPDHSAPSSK
Reported Property: pIC50
Answers are plain numbers, as −log10 of the molar value.

Can you look up pIC50 on Rat α3β2β3 (Rattus norvegicus, UniProt P04757+P12390+P12391) for CCCCCCC(=O)OC1CC(C)(C)NC(C)(C)C1 ?
3.92

---

molecular target: Rat α6β4β3 (Rattus norvegicus, UniProt P12391+P12392+P43143); construct: oocytes expressing the complete wild-type α6 subunits were tested; expressed in transfected cells; host or cells: Xenopus laevis oocytes injected with subunit cRNAs; clones from Dr. Jim Boulter (UCLA); experiment: Voltage clamp of Xenopus oocytes expressing α6β4β3 nAChR; type: cell-based; conditions: decrease in net charge, 100 μM ACh co-applied with TMPH; read-out: IC50 (area)
Sequence (P43143 31-493, one chain of several): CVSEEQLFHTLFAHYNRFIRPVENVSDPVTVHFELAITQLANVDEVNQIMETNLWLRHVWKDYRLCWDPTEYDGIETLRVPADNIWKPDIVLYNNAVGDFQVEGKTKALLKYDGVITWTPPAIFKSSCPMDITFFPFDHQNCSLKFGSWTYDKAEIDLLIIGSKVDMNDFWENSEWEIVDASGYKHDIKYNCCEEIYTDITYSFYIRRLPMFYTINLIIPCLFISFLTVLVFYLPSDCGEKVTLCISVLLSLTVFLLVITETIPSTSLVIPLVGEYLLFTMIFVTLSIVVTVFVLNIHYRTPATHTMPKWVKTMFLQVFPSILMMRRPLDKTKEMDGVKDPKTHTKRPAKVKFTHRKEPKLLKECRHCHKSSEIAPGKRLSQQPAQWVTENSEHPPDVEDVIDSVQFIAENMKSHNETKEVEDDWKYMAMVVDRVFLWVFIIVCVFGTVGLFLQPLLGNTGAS
Reported Property: pIC50
Answers are plain numbers, as −log10 of the molar value.

# query: pIC50 of entry CCCCCCC(=O)OC1CC(C)(C)NC(C)(C)C1 [TMPH]
4.74

---

molecular target: Rat α6β4β3 (Rattus norvegicus, UniProt P12391+P12392+P43143); construct: oocytes expressing the complete wild-type α6 subunits were tested; expressed in transfected cells; host or cells: Xenopus laevis oocytes injected with subunit cRNAs; clones from Dr. Jim Boulter (UCLA); assay: Voltage clamp of Xenopus oocytes expressing α6β4β3 nAChR; type: cell-based; conditions: decrease in peak current amplitude, 100 μM ACh co-applied with TMPH; read-out: IC50 (peak)
Reported Property: pIC50
One number for each entry, as −log10 of the molar value.

# query: pIC50 of entry CCCCCCC(=O)OC1CC(C)(C)NC(C)(C)C1
4.96

---

molecular target: Rat α3β2β3 (Rattus norvegicus, UniProt P04757+P12390+P12391); construct: expressed in transfected cells; host or cells: Xenopus laevis oocytes injected with subunit cRNAs; clones from Dr. Jim Boulter (UCLA); assay: Voltage clamp of Xenopus oocytes expressing α3β2β3 nAChR; assay type: cell-based; details: inhibition still present after 5-minute wash; read-out: IC50 (recovery)
Reported Property: IC50 (µM)
Answers are plain numbers, in µM.

Can you look up IC50 on Rat α3β2β3 (Rattus norvegicus, UniProt P04757+P12390+P12391) for CCCCCCC(=O)OC1CC(C)(C)NC(C)(C)C1 ?
4.3

---

target: Rat α4β2 (Rattus norvegicus, UniProt P09483+P12390); construct: expressed in transfected cells; host or cells: Xenopus laevis oocytes injected with subunit cRNAs; clones from Dr. Jim Boulter (UCLA); assay: Voltage clamp of Xenopus oocytes expressing α4β2 nAChR; type: cell-based; conditions: decrease in peak current amplitude, 10 μM ACh co-applied with TMPH; read-out: IC50 (peak)
Sequence (P09483 31-630): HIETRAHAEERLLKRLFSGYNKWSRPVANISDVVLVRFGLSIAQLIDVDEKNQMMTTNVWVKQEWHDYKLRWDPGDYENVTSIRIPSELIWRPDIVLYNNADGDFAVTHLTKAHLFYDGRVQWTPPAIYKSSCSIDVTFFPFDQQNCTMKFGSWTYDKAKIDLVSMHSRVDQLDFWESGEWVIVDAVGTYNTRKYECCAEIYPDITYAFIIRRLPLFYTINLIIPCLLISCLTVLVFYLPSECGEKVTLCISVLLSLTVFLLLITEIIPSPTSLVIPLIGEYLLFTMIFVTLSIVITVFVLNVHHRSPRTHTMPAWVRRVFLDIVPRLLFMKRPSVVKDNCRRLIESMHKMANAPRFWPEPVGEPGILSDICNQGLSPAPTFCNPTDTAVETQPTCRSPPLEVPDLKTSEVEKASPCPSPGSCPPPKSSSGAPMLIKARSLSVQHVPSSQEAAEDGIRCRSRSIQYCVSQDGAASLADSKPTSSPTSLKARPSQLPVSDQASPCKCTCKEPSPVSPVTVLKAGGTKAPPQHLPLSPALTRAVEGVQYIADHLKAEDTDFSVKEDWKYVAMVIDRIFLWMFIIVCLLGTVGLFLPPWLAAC
Sequence (P12390 25-500): as the sequence (P12390 25-500, one chain of several) above
Reported Property: IC50
Write the figure, then the unit, nothing else.

# query: IC50 of entry CCCCCCC(=O)OC1CC(C)(C)NC(C)(C)C1
1400 nM

---

molecular target: Rat α6β4β3 (Rattus norvegicus, UniProt P12391+P12392+P43143); construct: oocytes expressing the complete wild-type α6 subunits were tested; expressed in transfected cells; host or cells: Xenopus laevis oocytes injected with subunit cRNAs; clones from Dr. Jim Boulter (UCLA); test: Voltage clamp of Xenopus oocytes expressing α6β4β3 nAChR; type: cell-based; conditions: inhibition still present after 5-minute wash; read-out: IC50 (recovery)
Reported Property: IC50 (mM)
Give bare numbers, in mM.

# query: IC50 of entry CCCCCCC(=O)OC1CC(C)(C)NC(C)(C)C1
1.7

---

target: mouse muscle-type (α1β1εδ) nAChR (Mus musculus, UniProt P02716+P04756+P09690+P20782); construct: expressed in transfected cells; host or cells: Xenopus laevis oocytes injected with subunit cRNAs; clones from Dr. Jim Boulter (UCLA); test: Voltage clamp of Xenopus oocytes expressing muscle-type nAChR; assay type: cell-based; details: decrease in peak current amplitude, ACh co-applied with TMPH; read-out: IC50 (peak)
Reported Property: IC50
Write the figure, then the unit, nothing else.

# query: IC50 of entry CCCCCCC(=O)OC1CC(C)(C)NC(C)(C)C1 [TMPH]
276 nM

---

molecular target: Rat α4β2 (Rattus norvegicus, UniProt P09483+P12390); construct: expressed in transfected cells; host or cells: Xenopus laevis oocytes injected with subunit cRNAs; clones from Dr. Jim Boulter (UCLA); test: Voltage clamp of Xenopus oocytes expressing α4β2 nAChR; format: cell-based; settings: from shift of the net charge inhibition curve so that 100 nM is the IC90; read-out: equilibrium IC50
pIC50: −log10 of the molar value.
Reported Property: pIC50

# query: pIC50 of entry CCCCCCC(=O)OC1CC(C)(C)NC(C)(C)C1 [TMPH]
~8.00

---

target: Human α3β2 (Homo sapiens, UniProt P17787+P32297); construct: expressed in transfected cells; host or cells: Xenopus laevis oocytes injected with subunit cRNAs; test: Voltage clamp of Xenopus oocytes expressing human α3β2 nAChR; assay type: cell-based; conditions: decrease in net charge, 30 μM ACh co-applied with TMPH; read-out: IC50 (area)
Sequence (P32297 32-505): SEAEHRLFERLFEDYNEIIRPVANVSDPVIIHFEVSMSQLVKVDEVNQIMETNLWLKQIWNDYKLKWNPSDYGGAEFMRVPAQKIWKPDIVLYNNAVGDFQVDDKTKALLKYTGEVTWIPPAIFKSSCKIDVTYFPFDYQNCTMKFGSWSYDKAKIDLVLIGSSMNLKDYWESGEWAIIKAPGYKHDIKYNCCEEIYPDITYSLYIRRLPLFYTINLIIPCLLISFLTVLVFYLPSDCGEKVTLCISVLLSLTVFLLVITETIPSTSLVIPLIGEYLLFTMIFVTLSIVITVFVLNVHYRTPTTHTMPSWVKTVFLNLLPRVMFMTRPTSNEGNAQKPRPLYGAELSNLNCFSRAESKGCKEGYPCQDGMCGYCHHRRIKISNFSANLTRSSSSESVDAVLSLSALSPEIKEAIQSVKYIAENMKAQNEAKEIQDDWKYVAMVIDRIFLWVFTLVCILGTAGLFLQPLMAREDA
Sequence (P17787 26-502): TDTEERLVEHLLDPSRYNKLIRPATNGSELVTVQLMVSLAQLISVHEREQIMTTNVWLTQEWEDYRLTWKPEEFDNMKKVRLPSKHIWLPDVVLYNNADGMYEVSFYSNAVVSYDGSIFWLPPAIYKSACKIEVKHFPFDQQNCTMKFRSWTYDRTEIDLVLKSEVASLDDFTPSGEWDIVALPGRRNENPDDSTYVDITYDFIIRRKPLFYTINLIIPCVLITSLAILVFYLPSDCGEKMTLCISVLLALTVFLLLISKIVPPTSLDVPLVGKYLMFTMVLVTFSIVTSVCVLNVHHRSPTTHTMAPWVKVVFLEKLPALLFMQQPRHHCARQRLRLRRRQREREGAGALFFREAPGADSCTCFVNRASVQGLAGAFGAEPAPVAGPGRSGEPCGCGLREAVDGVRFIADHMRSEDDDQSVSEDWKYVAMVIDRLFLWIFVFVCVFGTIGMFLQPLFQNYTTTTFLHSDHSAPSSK
Reported Property: IC50 (nM)
Give bare numbers, in nM.

# query: IC50 of entry CCCCCCC(=O)OC1CC(C)(C)NC(C)(C)C1
460

---

Biological target: Rat α3β4β3 (Rattus norvegicus, UniProt P04757+P12391+P12392)
Sequence (P04757 26-499): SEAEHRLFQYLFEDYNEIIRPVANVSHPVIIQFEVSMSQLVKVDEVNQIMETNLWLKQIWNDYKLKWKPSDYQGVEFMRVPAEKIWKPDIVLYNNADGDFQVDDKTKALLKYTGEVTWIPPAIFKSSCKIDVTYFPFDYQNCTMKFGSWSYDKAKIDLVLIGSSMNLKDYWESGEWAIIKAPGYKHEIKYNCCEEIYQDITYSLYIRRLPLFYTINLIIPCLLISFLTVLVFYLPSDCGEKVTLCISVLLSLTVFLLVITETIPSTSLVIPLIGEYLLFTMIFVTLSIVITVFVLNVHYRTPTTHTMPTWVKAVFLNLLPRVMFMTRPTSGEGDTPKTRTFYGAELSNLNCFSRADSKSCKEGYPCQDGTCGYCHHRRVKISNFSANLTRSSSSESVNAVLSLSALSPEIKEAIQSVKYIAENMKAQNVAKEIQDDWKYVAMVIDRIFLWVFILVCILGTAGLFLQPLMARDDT
Sequence (P12392 21-495): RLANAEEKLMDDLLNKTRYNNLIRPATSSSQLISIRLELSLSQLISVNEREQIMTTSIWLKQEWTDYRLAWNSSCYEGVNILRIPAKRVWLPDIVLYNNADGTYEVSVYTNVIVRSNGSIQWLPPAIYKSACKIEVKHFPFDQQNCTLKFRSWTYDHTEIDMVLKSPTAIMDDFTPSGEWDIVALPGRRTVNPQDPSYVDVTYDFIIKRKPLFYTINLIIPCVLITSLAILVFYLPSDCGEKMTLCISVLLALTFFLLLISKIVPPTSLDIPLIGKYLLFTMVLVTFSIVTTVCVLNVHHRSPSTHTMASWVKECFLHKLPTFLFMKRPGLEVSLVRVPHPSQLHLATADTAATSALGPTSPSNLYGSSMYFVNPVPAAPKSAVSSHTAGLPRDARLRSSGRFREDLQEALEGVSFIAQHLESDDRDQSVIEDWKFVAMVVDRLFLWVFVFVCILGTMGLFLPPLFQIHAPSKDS
Sequence (P12391 31-464): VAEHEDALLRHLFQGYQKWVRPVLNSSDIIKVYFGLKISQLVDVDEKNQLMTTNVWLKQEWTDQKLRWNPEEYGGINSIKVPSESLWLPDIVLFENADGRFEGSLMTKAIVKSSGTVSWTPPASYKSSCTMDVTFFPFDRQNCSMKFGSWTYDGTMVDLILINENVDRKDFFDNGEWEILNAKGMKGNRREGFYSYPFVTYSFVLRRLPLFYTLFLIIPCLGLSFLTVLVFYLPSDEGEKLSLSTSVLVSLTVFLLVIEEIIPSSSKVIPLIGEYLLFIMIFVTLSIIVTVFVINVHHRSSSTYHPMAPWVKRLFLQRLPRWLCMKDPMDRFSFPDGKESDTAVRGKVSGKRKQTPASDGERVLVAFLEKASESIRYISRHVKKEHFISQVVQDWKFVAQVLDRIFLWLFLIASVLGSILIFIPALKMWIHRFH
Experiment: Voltage clamp of Xenopus oocytes expressing α3β4β3 nAChR
Assay type: cell-based
Parameters: expressed in transfected cells; host or cells: Xenopus laevis oocytes injected with subunit cRNAs; clones from Dr. Jim Boulter (UCLA)
Settings: decrease in net charge, 100 μM ACh co-applied with TMPH; read-out: IC50 (area)
Experimental: Mature (>9 cm) female Xenopus laevis African frogs (NASCO, Ft. Atkinson, Wis.) were used as a source of oocytes. Prior to surgery, frogs were anesthetized by placing the animal in a 1.5 g/l solution of MS222 (3-aminobenzoic acid ethyl ester) for 30 minutes. […] Rat neuronal nAChR clones and mouse muscle nAChR cDNA clones were used. […] The corrected clone was expressed as above in Xenopus oocytes with β2 and β3 and compared to the wild-type α3 co-expressed with β2 and β3. […]
Reported Property: pIC50
One number for each entry, as −log10 of the molar value.

# query: pIC50 of entry CCCCCCC(=O)OC1CC(C)(C)NC(C)(C)C1 [TMPH]
5.85

---

Molecular target: Rat α6/3β2β3 (Rattus norvegicus, UniProt P04757+P12390+P12391+P43143)
Construct: evaluation of the effects of the α6 extracellular domain; remainder of rat α3 subunit (transmembrane and intracellular part); expressed in transfected cells; host or cells: Xenopus laevis oocytes injected with subunit cRNAs; α6/3 clone from Michael McIntosh (University of Utah), corrected in house by QuickChange
Sequence (P43143+P04757 fused with the stated changes, one chain of several): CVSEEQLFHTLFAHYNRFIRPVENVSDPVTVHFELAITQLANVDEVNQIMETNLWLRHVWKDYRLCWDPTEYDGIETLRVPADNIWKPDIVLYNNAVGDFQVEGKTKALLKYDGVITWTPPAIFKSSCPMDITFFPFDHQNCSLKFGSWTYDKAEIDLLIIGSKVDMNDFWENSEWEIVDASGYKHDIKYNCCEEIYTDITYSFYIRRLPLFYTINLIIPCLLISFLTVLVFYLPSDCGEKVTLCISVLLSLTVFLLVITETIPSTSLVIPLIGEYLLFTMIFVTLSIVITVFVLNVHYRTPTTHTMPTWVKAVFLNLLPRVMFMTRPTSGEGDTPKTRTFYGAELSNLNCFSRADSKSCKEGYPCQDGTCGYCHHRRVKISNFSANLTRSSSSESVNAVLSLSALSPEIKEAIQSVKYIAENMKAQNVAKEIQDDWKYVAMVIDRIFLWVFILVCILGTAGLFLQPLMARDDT
Sequence (P12390 25-500, one chain of several): as the sequence (P12390 25-500, one chain of several) above
Assay: Voltage clamp of Xenopus oocytes expressing α6/3 chimera with β2 and β3
Assay type: cell-based
Settings: decrease in peak current amplitude, 100 μM ACh co-applied with TMPH; read-out: IC50 (peak)
Method: Mature (>9 cm) female Xenopus laevis African frogs (NASCO, Ft. Atkinson, Wis.) were used as a source of oocytes. Prior to surgery, frogs were anesthetized by placing the animal in a 1.5 g/l solution of MS222 (3-aminobenzoic acid ethyl ester) for 30 minutes. […] Rat neuronal nAChR clones and mouse muscle nAChR cDNA clones were used. […] The corrected clone was expressed as above in Xenopus oocytes with β2 and β3 and compared to the wild-type α3 co-expressed with β2 and β3. […]
Reported Property: pIC50
Give bare numbers, as −log10 of the molar value.

Can you look up pIC50 on Rat α6/3β2β3 (Rattus norvegicus, UniProt P04757+P12390+P12391+P43143) for CCCCCCC(=O)OC1CC(C)(C)NC(C)(C)C1 ?
4.22

---

molecular target: Human α3β2α5 (Homo sapiens, UniProt P17787+P30532+P32297); construct: expressed in transfected cells; host or cells: Xenopus laevis oocytes injected with subunit cRNAs; test: Voltage clamp of Xenopus oocytes expressing human α3β2α5 nAChR; type: cell-based; settings: inhibition still present after 5-minute wash; read-out: IC50 (recovery)
Sequence (P32297 32-505): as the sequence (P32297 32-505) above
Sequence (P17787 26-502): as the sequence (P17787 26-502) above
Sequence (P30532 23-468): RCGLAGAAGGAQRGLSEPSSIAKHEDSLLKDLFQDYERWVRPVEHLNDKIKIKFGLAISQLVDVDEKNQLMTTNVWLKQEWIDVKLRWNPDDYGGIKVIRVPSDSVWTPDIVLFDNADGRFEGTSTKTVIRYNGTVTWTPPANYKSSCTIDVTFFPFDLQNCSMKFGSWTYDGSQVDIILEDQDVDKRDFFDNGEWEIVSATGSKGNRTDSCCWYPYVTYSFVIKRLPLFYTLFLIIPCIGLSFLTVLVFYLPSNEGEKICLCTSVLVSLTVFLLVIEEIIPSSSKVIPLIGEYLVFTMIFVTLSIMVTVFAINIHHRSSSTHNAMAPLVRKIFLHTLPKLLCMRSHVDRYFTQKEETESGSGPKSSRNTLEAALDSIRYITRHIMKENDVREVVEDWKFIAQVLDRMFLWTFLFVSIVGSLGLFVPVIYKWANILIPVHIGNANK
Reported Property: pIC50
Give bare numbers, as −log10 of the molar value.

# query: pIC50 of entry CCCCCCC(=O)OC1CC(C)(C)NC(C)(C)C1 [TMPH]
6.12

---

target: Rat α3β4 (Rattus norvegicus, UniProt P04757+P12392); construct: expressed in transfected cells; host or cells: Xenopus laevis oocytes injected with subunit cRNAs; clones from Dr. Jim Boulter (UCLA); assay: Voltage clamp of Xenopus oocytes expressing α3β4 nAChR; assay type: cell-based; conditions: decrease in net charge, 100 μM ACh co-applied with TMPH; read-out: IC50 (area)
Reported Property: IC50

Can you look up IC50 on Rat α3β4 (Rattus norvegicus, UniProt P04757+P12392) for CCCCCCC(=O)OC1CC(C)(C)NC(C)(C)C1 ?
75 nM
